Reported values of phosphorylation enrichment for individual entries
- subject_of_test: EPHB1 (UniProt P54762)
- Sequence (P54762 whole entry, looked up): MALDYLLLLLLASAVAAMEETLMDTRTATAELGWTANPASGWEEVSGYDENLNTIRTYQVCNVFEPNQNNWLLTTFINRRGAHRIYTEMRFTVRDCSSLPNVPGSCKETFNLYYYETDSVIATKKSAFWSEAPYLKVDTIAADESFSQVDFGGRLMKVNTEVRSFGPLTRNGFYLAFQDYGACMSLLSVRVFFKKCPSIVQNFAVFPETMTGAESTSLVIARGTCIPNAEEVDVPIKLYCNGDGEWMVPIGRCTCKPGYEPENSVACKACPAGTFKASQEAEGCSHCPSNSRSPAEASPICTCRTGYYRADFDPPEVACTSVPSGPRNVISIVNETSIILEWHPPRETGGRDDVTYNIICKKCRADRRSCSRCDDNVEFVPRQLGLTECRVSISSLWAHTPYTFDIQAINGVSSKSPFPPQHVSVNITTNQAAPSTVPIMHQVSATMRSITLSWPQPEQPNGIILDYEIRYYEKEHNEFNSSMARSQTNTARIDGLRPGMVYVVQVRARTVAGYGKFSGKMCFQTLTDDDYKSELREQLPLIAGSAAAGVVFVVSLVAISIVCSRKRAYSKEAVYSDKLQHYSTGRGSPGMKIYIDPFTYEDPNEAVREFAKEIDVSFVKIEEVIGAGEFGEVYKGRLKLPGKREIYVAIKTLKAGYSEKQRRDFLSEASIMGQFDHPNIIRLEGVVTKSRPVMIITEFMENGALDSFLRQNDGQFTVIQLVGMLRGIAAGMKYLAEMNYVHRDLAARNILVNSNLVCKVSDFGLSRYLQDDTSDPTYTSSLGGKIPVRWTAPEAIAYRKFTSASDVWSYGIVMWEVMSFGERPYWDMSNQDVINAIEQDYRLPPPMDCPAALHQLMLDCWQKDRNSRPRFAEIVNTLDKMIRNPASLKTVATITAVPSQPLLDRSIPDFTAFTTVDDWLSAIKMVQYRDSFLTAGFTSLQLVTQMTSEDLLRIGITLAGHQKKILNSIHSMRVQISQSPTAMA
- run_description: phosphorylation enrichment, bacterial display (enrichment ratio); higher = better substrate or ligand; peptides without Tyr show the background;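 also: 11-residue human phosphosite peptides and single-mutation variants displayed on the E. coli surface, counted by deep sequencing, each peptide's frequency after selection divided by its frequency in the unselected input library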;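 also: frequency after pTyr selection over input frequency; kinase dosed for 20-30% of maximal phosphorylation in three min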
Give a plain numeric answer without units written out.

Completed entries (count: 5):
// query For the sequence KEDPEYKKKFR [FAM161A_Y278_E273K] , give its reported phosphorylation enrichment.
// result 0.499

// query Supply reported phosphorylation enrichment belonging to this sequence: ANAYIYDVQLP [L1CAM_Y420_V421D]
// result 3.15

// query Give phosphorylation enrichment for the following sequence: TDLAYYLVREG [ASL_Y376_K380E]
// result 0.578

// query Specify phosphorylation enrichment for GETEQYVGGGG [FAT4_Y4980_A4977T] and stop.
// result 0.526

// query Please report the measured phosphorylation enrichment for VTRAKYFIRDE [GNAS_Y339]
// result 0.356

New cases:
// query Look up and report measured phosphorylation enrichment for this entry: LQEQNYPAVDS [FAM114A1_Y115_L116P]
// result 1.37

// query Tell me phosphorylation enrichment reported for LNPDGYEKAFE [CPXM2_Y427_YF]
// result 0.667

// query Give a short answer stating reported phosphorylation enrichment for IGMLIYFARKA [VCAM1_Y718_I716L] .
// result 0.518

// query Provide measured phosphorylation enrichment value, entry: YEEDSYSHIMA [FDPS_Y388]
// result 0.67

// query Respond only with phosphorylation enrichment recorded for GGEEFYVHFVG [KAT8_Y90_R86G_YF]
// result 0.747

// query Quote phosphorylation enrichment reported for VDGSVYKLHPS [GCK_Y413] please.
// result 0.467

// query Tell me its phosphorylation enrichment given RGFRQDAFDGK [HLA-A_Y140_YF] as the entry.
// result 0.454

// query Return phosphorylation enrichment (reported value) for this sequence: RQQEVYLLYKQ [RARRES1_Y159_D158V]
// result 0.757

// query Please give measured phosphorylation enrichment of the following entry: ETALHYIHDGI [GATD3A_Y250]
// result 0.524

// query Write down phosphorylation enrichment measured for item IDQDKYAVHFI [FLNA_Y2388_R2391H]
// result 0.483

// query Identify measured phosphorylation enrichment corresponding to TFAVSYLPDMS [FLNC_Y1602_T1599A_YF]
// result 0.598

###

- subject_of_test: Fyn (UniProt P06241)
- Sequence (P06241 whole entry, looked up): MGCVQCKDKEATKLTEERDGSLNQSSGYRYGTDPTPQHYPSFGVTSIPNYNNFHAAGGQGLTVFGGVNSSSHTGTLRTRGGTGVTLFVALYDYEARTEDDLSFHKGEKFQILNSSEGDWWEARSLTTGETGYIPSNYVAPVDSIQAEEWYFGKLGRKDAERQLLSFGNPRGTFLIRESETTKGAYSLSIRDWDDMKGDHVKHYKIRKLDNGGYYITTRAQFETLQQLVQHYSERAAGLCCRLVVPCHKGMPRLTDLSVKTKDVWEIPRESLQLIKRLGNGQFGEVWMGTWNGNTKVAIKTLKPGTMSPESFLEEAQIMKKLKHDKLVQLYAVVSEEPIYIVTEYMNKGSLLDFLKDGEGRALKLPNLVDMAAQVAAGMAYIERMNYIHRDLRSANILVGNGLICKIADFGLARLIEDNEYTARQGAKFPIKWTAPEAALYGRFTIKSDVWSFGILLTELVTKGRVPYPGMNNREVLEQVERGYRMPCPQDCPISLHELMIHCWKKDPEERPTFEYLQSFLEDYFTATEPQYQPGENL
- run_description: phosphorylation enrichment, bacterial display (enrichment ratio); higher = better substrate or ligand; peptides without Tyr show the background
measured_parameter: phosphorylation enrichment
Keep the answer to the number alone.

Sample answers from the record:
// query Give a short answer stating reported phosphorylation enrichment for TVQVAYYTMMM [SPATA17_Y83] .
// result 2

// query Please supply the value of reported phosphorylation enrichment for the item DAICYYRMENA [NPHS2_Y195]
// result 1.34

// query Please look at this sequence and report its phosphorylation enrichment: IKGNMYFENSF [EGFR_Y112_R108K_YF]
// result 0.533

// query Hello, please tell me recorded phosphorylation enrichment for this one: PESCLYKESWL [IQGAP2_Y630]
// result 1.21

// query Look up phosphorylation enrichment of SKHRLYSDLQT [PTCHD1_Y84] and report it.
// result 0.376

Continuing:
// query Give phosphorylation enrichment for ALRASYTPSPA [ESS2_Y418]
// result 0.332

// query Give reported phosphorylation enrichment value for LYYYSYLLKNH [PTEN_Y180_V175L]
// result 0.946

// query Look up and state reported phosphorylation enrichment for EILDVYIFLGP [GAA_Y340_G335E]
// result 0.934

// query Specify phosphorylation enrichment for AAGGRYDGLLG [HARS2_Y364_V368L] and stop.
// result 0.548

// query Give reported phosphorylation enrichment value for HSGLAYTMERS [GLUD1_Y512]
// result 0.685

// query For the sequence PDSVDYPKKGY [CTSK_Y121_R122P] , give its reported phosphorylation enrichment.
// result 0.759

// query In one line, give reported phosphorylation enrichment of the entry ITNVLYHVVGW [GBA_Y412_L410V] .
// result 3.01
